# Test system: NCI-H1734
# Protocol Text: relative viability (nuclei count vs DMSO), 5 days (fraction); higher = more cells survive
# Test Settings: first compound 0.000632 µM

- Compound: "CC(=O)O[C@@]12CO[C@@H]1C[C@H](O)[C@@]1(C)C(=O)[C@H](O)C3=C(C)[C@@H](OC(=O)[C@H](O)[C@@H](NC(=O)OC(C)(C)C)c4ccccc4)C[C@@](O)([C@@H](OC(=O)c4ccccc4)[C@H]21)C3(C)C [Docetaxel] + CC(C)C[C@H](NC(=O)[C@H](Cc1ccccc1)NC(=O)c1cnccn1)B(O)O [Bortezomib] (partner 0.002 µM)"
  relative viability: 0.577
- Compound: "CC(=O)O[C@@]12CO[C@@H]1C[C@H](O)[C@@]1(C)C(=O)[C@H](O)C3=C(C)[C@@H](OC(=O)[C@H](O)[C@@H](NC(=O)OC(C)(C)C)c4ccccc4)C[C@@](O)([C@@H](OC(=O)c4ccccc4)[C@H]21)C3(C)C [Docetaxel] + CCNC(=O)c1noc(-c2cc(C(C)C)c(O)cc2O)c1-c1ccc(CN2CCOCC2)cc1 [Luminespib] (partner 0.01 µM)"
  relative viability: 0.197
- Compound: "CC(=O)O[C@@]12CO[C@@H]1C[C@H](O)[C@@]1(C)C(=O)[C@H](O)C3=C(C)[C@@H](OC(=O)[C@H](O)[C@@H](NC(=O)OC(C)(C)C)c4ccccc4)C[C@@](O)([C@@H](OC(=O)c4ccccc4)[C@H]21)C3(C)C [Docetaxel] + Cc1cc(Nc2cc(N3CCN(C)CC3)nc(Sc3ccc(NC(=O)C4CC4)cc3)n2)n[nH]1 [Tozasertib] (partner 0.1 µM)"
  relative viability: 0.345
- Compound: "CC(=O)O[C@@]12CO[C@@H]1C[C@H](O)[C@@]1(C)C(=O)[C@H](O)C3=C(C)[C@@H](OC(=O)[C@H](O)[C@@H](NC(=O)OC(C)(C)C)c4ccccc4)C[C@@](O)([C@@H](OC(=O)c4ccccc4)[C@H]21)C3(C)C [Docetaxel] + CC1(C)CCC(c2ccc(Cl)cc2)=C(CN2CCN(c3ccc(C(=O)NS(=O)(=O)c4ccc(N[C@H](CCN5CCOCC5)CSc5ccccc5)c(S(=O)(=O)C(F)(F)F)c4)cc3)CC2)C1 [Navitoclax] (partner 0.5 µM)"
  relative viability: 0.819
- Compound: "CC(=O)O[C@@]12CO[C@@H]1C[C@H](O)[C@@]1(C)C(=O)[C@H](O)C3=C(C)[C@@H](OC(=O)[C@H](O)[C@@H](NC(=O)OC(C)(C)C)c4ccccc4)C[C@@](O)([C@@H](OC(=O)c4ccccc4)[C@H]21)C3(C)C [Docetaxel] + O=C(CCCCCCC(=O)Nc1ccccc1)NO [Vorinostat] (partner 1 µM)"
  relative viability: 0.506

---

Below, each entry is listed alongside its reported relative viability.
# Test system: COR-L 105
# Protocol Text: relative viability (nuclei count vs DMSO), 5 days (fraction); higher = more cells survive
# Test Settings: first compound 0.01581 µM

- Molecule: "COc1cc2nccc(Oc3ccc(NC(=O)Nc4cc(C)on4)c(Cl)c3)c2cc1OC [Tivozanib] + C[C@]1(O)C[C@@H](c2nc(-c3ccc4ccc(-c5ccccc5)nc4c3)c3c(N)nccn32)C1 [Linsitinib] (partner 1 µM)"
  relative viability: 1.25
- Molecule: "COc1cc2nccc(Oc3ccc(NC(=O)Nc4cc(C)on4)c(Cl)c3)c2cc1OC [Tivozanib] + Cc1nc(Nc2ncc(C(=O)Nc3c(C)cccc3Cl)s2)cc(N2CCN(CCO)CC2)n1 [Dasatinib] (partner 0.075 µM)"
  relative viability: 0.361
- Molecule: "Nc1ccn([C@@H]2O[C@H](CO)[C@@H](O)[C@@H]2O)c(=O)n1 [Cytarabine] + COc1cccc2cc(-c3nc([C@H]4CC[C@H](C(=O)O)CC4)n4ncnc(N)c34)[nH]c12 [OSI-027] (partner 0.5 µM)"
  relative viability: 0.587
- Molecule: "Nc1ccn([C@@H]2O[C@H](CO)[C@@H](O)[C@@H]2O)c(=O)n1 [Cytarabine] + C[C@@H](Oc1cc(-c2cnn(C3CCNCC3)c2)cnc1N)c1c(Cl)ccc(F)c1Cl [Crizotinib] (partner 1 µM)"
  relative viability: 0.725
- Molecule: "COc1cc2nccc(Oc3ccc(NC(=O)Nc4cc(C)on4)c(Cl)c3)c2cc1OC [Tivozanib] + CS(=O)(=O)N1CCN(Cc2cc3nc(-c4cccc5[nH]ncc45)nc(N4CCOCC4)c3s2)CC1 [Pictilisib] (partner 1 µM)"
  relative viability: 0.405
- Molecule: "COc1cc2nccc(Oc3ccc(NC(=O)Nc4cc(C)on4)c(Cl)c3)c2cc1OC [Tivozanib] + C[C@@H](Oc1cc(-c2cnn(C3CCNCC3)c2)cnc1N)c1c(Cl)ccc(F)c1Cl [Crizotinib] (partner 1 µM)"
  relative viability: 0.794
